Reference source for all entries: patent US20240024520A1

TARGET UNDER TEST: C5 (Homo sapiens, UniProt P01031)
Sequence (P01031 19-1676): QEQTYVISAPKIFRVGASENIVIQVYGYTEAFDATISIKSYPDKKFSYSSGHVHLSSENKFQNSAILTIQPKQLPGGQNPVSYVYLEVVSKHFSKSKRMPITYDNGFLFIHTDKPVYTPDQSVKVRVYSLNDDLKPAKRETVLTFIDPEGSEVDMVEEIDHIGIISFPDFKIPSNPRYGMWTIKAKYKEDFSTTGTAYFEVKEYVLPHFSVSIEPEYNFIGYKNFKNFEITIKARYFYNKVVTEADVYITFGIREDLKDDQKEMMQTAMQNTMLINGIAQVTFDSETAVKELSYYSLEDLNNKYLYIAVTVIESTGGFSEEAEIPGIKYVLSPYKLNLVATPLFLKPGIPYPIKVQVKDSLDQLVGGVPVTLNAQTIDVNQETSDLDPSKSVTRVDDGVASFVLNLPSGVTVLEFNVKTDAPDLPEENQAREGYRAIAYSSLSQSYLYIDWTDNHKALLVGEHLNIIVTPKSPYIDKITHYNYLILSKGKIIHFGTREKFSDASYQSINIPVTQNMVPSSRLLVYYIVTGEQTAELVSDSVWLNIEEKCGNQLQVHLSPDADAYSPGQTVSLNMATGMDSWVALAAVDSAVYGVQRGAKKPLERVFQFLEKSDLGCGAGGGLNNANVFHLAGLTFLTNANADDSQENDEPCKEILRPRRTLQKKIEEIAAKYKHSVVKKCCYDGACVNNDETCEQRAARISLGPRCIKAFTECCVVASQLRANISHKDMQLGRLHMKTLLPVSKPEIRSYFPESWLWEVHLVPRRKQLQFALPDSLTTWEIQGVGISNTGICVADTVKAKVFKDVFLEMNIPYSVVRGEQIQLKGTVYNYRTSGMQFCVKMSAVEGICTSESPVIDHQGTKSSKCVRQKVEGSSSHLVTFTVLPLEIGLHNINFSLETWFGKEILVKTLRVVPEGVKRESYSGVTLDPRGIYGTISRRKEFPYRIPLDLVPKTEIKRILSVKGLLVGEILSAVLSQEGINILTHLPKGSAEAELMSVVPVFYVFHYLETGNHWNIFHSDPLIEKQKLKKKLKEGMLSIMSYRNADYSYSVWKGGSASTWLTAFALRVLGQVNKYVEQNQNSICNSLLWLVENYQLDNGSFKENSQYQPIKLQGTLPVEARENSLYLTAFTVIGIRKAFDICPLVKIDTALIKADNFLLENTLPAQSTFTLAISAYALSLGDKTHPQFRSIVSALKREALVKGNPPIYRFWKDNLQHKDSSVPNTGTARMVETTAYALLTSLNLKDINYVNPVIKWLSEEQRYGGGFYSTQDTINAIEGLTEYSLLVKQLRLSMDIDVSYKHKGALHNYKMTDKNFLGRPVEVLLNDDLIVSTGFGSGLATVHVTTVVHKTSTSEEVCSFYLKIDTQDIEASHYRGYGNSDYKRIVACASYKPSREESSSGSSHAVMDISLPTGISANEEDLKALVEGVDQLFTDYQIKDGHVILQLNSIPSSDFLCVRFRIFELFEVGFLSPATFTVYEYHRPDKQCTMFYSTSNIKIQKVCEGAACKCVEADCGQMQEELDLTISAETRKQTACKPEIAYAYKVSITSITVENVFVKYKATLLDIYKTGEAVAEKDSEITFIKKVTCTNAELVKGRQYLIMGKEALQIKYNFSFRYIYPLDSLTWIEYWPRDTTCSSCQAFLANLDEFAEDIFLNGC
RUN DESCRIPTION: Monoclonal phage screening ELISA, human C5
Format: binding
COND: knob domain of the anti-C5 ultralong CDR-H3
EXPERIMENTAL READOUT: Specificity

substance="588 (SCPDGYHFIEPCHSGLCWREGACNGDGICANGLGRCRTVSETST; Anti-C5 ultralong CDR-H3 knob domain) [compound 588]" target_under_test="C5 (Homo sapiens, UniProt P01031)" experimental_readout=Specificity result=Human
substance="591 (NCPDGYGYQRHCTVGEDCTDSCCDRYGLCTTSTET; Anti-C5 ultralong CDR-H3 knob domain) [compound 591]" target_under_test="C5 (Homo sapiens, UniProt P01031)" experimental_readout=Specificity result=Human
substance="585 (RCPDGCFLSSYCPVGYACSGFACCDCGGYDYAGGVRGGRCSVRSTT; Anti-C5 ultralong CDR-H3 knob domain) [compound 585]" target_under_test="C5 (Homo sapiens, UniProt P01031)" experimental_readout=Specificity result=Human

###

TARGET UNDER TEST: rat C5 protein (Rattus norvegicus, UniProt P08650)
Sequence (P08650 19-674 limits assumed): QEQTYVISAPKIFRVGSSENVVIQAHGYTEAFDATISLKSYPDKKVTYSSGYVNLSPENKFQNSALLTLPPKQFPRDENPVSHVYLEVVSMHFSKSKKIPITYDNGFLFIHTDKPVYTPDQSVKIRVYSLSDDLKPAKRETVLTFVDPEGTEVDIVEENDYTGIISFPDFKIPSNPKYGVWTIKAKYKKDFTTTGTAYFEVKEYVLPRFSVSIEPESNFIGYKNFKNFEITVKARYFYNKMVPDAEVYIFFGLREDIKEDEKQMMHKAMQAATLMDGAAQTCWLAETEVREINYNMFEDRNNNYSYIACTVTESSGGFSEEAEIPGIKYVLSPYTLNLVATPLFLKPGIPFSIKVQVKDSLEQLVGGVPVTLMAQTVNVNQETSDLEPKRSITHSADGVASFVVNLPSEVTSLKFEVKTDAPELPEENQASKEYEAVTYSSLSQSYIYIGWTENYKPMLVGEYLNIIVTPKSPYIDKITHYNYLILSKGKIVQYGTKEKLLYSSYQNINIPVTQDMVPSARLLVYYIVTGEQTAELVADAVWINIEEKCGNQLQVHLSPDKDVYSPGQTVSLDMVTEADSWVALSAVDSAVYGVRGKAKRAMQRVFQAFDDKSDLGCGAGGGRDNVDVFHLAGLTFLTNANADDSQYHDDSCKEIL
Sequence (P08650 679-1681 limits assumed): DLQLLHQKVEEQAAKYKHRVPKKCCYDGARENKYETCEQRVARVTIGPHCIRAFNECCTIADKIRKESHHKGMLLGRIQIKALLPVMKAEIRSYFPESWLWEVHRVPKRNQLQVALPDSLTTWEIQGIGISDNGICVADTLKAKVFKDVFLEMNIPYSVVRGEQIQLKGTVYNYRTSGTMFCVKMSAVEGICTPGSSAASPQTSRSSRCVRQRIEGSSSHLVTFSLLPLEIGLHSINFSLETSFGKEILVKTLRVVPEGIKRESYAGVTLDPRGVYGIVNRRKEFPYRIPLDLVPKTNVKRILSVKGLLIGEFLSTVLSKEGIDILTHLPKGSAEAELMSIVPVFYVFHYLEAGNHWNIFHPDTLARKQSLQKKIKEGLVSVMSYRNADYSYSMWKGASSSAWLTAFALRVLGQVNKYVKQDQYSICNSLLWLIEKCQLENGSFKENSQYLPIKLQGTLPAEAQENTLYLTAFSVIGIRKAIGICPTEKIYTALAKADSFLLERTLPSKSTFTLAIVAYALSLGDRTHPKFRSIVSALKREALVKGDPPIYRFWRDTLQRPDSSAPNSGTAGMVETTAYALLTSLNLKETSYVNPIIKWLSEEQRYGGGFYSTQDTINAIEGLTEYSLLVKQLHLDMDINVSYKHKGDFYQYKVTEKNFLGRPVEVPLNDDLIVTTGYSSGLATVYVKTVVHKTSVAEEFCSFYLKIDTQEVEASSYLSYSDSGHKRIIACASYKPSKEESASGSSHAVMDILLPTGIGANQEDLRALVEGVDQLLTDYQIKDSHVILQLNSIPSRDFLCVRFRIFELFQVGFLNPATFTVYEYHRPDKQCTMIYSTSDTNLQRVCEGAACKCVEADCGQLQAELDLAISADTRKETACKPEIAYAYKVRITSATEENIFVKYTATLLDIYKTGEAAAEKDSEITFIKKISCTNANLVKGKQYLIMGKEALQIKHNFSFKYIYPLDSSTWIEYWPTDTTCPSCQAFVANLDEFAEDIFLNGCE
RUN DESCRIPTION: Monoclonal phage screening ELISA, rat C5
Format: binding
COND: knob domain of the anti-C5 ultralong CDR-H3
EXPERIMENTAL READOUT: Specificity

Examples from the recorded data:
substance="597 (TCPRGYHYNDRCDFFNTCRVEECCLNGVVNTYGICEYEGGSAT; Anti-C5 ultralong CDR-H3 knob domain) [compound 597]" experimental_readout=Specificity result="Human and Rat"
substance="599 (SCPLGYAINDRCDDLKTCGPDECCLNGVVNAYGICEYEGESAT; Anti-C5 ultralong CDR-H3 knob domain) [compound 599]" experimental_readout=Specificity result="Human and Rat"
substance="594 (TCPLGYDLNYRCDHFNTCRVEECCKNGVVNAYGICEYAGGSAT; Anti-C5 ultralong CDR-H3 knob domain) [compound 594]" experimental_readout=Specificity result="Human and Rat"
substance="598 (SCPDGYGYGDGYCYDSGCSASDCYGVDALYSYGHCGCSIYTERPR; Anti-C5 ultralong CDR-H3 knob domain) [compound 598]" experimental_readout=Specificity result="Human and Rat"

// returns Specificity for 596 (TCPRGYHYNDRCEFFNTCRVEECCLNGVVNTYGICEYEGGSAT; Anti-C5 ultralong CDR-H3 knob domain) [compound 596] with rat C5 protein (Rattus norvegicus, UniProt P08650); value = Human and Rat

# value of Specificity, rat C5 protein (Rattus norvegicus, UniProt P08650), item 595 (TCPSGCSWFSGCWDTYRCGPSVCCRDGRYGCAAIICRDT; Anti-C5 ultralong CDR-H3 knob domain) [compound 595] = Human and Rat

###

TARGET UNDER TEST: C5 (Homo sapiens)
RUN DESCRIPTION: Monoclonal phage screening ELISA, human C5
Type: binding
COND: anti-C5 ultralong CDR-H3; binder = OD>0.2 AU
EXPERIMENTAL READOUT: Specificity

substance="569 (TTVHQRTAKRCPSNNEEATACRYSSVCGDYVCEGLSESYAQGWGACRRYACRDSYEWYVD; Anti-C5 ultralong CDR-H3) [compound 569]" experimental_readout=Specificity result=Human
substance="544 (TTVHQRTLKNRNCPDGYGYQRHCTVGEDCTDSCCDRYGLCTTSTETYTYELYVE; Anti-C5 ultralong CDR-H3) [compound 544]" experimental_readout=Specificity result=Human
substance="566 (TTVVQRTKRTCPEGLVYNSDQSRCCAADSGVCWEYWRGERVTRGFTYEWYVD; Anti-C5 ultralong CDR-H3) [compound 566]" experimental_readout=Specificity result=Human
substance="545 (TTVHQRTLKNRNRPEGYGYQRHCTVGEECTDSCCDRYGLCTTSTETYTYEWYVD; Anti-C5 ultralong CDR-H3) [compound 545]" experimental_readout=Specificity result=Human
substance="561 (TTVHQQTNKRRQNCPDGYEYNGFCTPDGGCSRVSNWGWDRSCISPTYTYTYEWYVE; Anti-C5 ultralong CDR-H3) [compound 561]" experimental_readout=Specificity result=Human

Lab book: Specificity of 549 (TTVHQRTLKNRNCPDGYGYQRHCTVGEDCTDSCCDRYGLCTTSTETYTYEWYVD; Anti-C5 ultralong CDR-H3) [compound 549] noted as Human

For 555 (TTVHQKTKKTCPRGYHYNDRCEFFNTCRVEECCLNGVVNTYGICEYEGGSATYTYEWYVD; Anti-C5 ultralong CDR-H3) [compound 555] the substance record lists Specificity as Human and Rat

# substance 541 (TTVHQRTIKSGCPPGYKSGVDCSPGSECKWGCYAVDGRRYGGYGADSGVGSTYTHEYHVE; Anti-C5 ultralong CDR-H3) [compound 541] ; its Specificity = Human

Consider 553 (TTVHQKTKKTCPRGYHYNDRCEFFNTCRVEECCLNGVVNTYGICEYEGGSATYTYEWYVD; Anti-C5 ultralong CDR-H3) [compound 553] . Its measured Specificity is Human and Rat

Lab book: Specificity of 559 (TTVHQRTAKRCPSNNEDATACRYSSVCGDYVCEGLSESYAQGWGACRRYACRDSYEWYVD; Anti-C5 ultralong CDR-H3) [compound 559] noted as Human

Summary for this substance, 547 (TTVHQRTLKNRNCPDGYGYQRHCTVGEDCTDSCCDRYGLCTTSTETYTYEFYVN; Anti-C5 ultralong CDR-H3) [compound 547] : Specificity is Human

###

TARGET UNDER TEST: C5 (Homo sapiens, UniProt P01031)
RUN DESCRIPTION: Monoclonal phage screening ELISA, human C5
Type: binding
COND: knob domain of the anti-C5 ultralong CDR-H3
EXPERIMENTAL READOUT: Specificity

substance="606 (TCPEGLVYNSDQSRCCAADSGVCWEYWRGERVTRGFT; Anti-C5 ultralong CDR-H3 knob domain) [compound 606]" result=Human
substance="607 (TCPDGYSYSEGCGKGDDCGGVHCCANGGVTCWYRHCCSTGTDT; Anti-C5 ultralong CDR-H3 knob domain) [compound 607]" result=Human
substance="605 (GCPPGYKSGVDCSPGSECKWGCYAVDGRRYGGYGADSGVGST; Anti-C5 ultralong CDR-H3 knob domain) [compound 605]" result=Human
substance="598 (SCPDGYGYGDGYCYDSGCSASDCYGVDALYSYGHCGCSIYTERPR; Anti-C5 ultralong CDR-H3 knob domain) [compound 598]" result="Human and Rat"
substance="581 (HCSPGSDCSWGCYDKDDRRVDGAGVASGLGST; Anti-C5 ultralong CDR-H3 knob domain) [compound 581]" result=Human

Notebook: 609 (SGCPPGYKSGVDCSPGSEYKWGCYAVDGRRYGGYGADSGVGST; Anti-C5 ultralong CDR-H3 knob domain) [compound 609] , Specificity read as Human

Per the records, this substance ( 587 (GCPPGTVAGVHCSPGSDCSWGCYDRDDRRVDGAGADSGLGSTST; Anti-C5 ultralong CDR-H3 knob domain) [compound 587] ) has Specificity equal to Human

Record 608 (RCPSNNEEATACRYSSVCGDYVCEGLSESYAQGWGACRRYACRDS; Anti-C5 ultralong CDR-H3 knob domain) [compound 608] . Reported Specificity: Human

Looking up 595 (TCPSGCSWFSGCWDTYRCGPSVCCRDGRYGCAAIICRDT; Anti-C5 ultralong CDR-H3 knob domain) [compound 595] , I see its Specificity listed as Human and Rat

Reported Specificity of 589 (GCPTGTVAGVHCSPGSDCSWGCYDADDRRVDGYGADSGVGSP; Anti-C5 ultralong CDR-H3 knob domain) [compound 589] : Human

Note to self: Specificity recorded for 583 (SCPDGYHFIEPCHSGLCWREGACNGDGICANGLGRCRTVSETST; Anti-C5 ultralong CDR-H3 knob domain) [compound 583] was Human

Value of Specificity reported for the substance 593 (NCPDGYGYQRHCTVGEDCTERCCDNYGLCTSYTDT; Anti-C5 ultralong CDR-H3 knob domain) [compound 593] is Human

Value of Specificity reported for the substance 584 (GCPTGTVAGVHCSPGSDCSWGCYDKDDRRVDGAGAASGLGST; Anti-C5 ultralong CDR-H3 knob domain) [compound 584] is Human

###

TARGET UNDER TEST: C5 (Homo sapiens)
RUN DESCRIPTION: Monoclonal phage screening ELISA, human C5
Assay type: binding
COND: knob domain of the anti-C5 ultralong CDR-H3
EXPERIMENTAL READOUT: Specificity

Examples from the recorded data:
substance="580 (SCPDGYKDNRFCSPDGGCSAVSHWGWDSSCVS; Anti-C5 ultralong CDR-H3 knob domain) [compound 580]" experimental_readout=Specificity result=Human
substance="600 (RCPSNNEDATACRYSSVCGDYVCEGLSESYAQGWGACRRYACRDS; Anti-C5 ultralong CDR-H3 knob domain) [compound 600]" experimental_readout=Specificity result=Human
substance="599 (SCPLGYAINDRCDDLKTCGPDECCLNGVVNAYGICEYEGESAT; Anti-C5 ultralong CDR-H3 knob domain) [compound 599]" experimental_readout=Specificity result="Human and Rat"
substance="582 (GCPPGYKSGVDCSPGSECKWGCYAVDGRRYGGYGADSGVGST; Anti-C5 ultralong CDR-H3 knob domain) [compound 582]" experimental_readout=Specificity result=Human
substance="603 (SCPDGWGHSDDCNCACSANAYACCKRDWLLPGPSCECSTYCVS; Anti-C5 ultralong CDR-H3 knob domain) [compound 603]" experimental_readout=Specificity result=Human
substance="597 (TCPRGYHYNDRCDFFNTCRVEECCLNGVVNTYGICEYEGGSAT; Anti-C5 ultralong CDR-H3 knob domain) [compound 597]" experimental_readout=Specificity result="Human and Rat"
substance="586 (NCPDGYKYNGFCTPDGGCSRVSSWGWDRSCISPT; Anti-C5 ultralong CDR-H3 knob domain) [compound 586]" experimental_readout=Specificity result=Human
substance="604 (SCPDGWSDCHGSCDGVGCTGSDCVRYNARGYGRHACSG; Anti-C5 ultralong CDR-H3 knob domain) [compound 604]" experimental_readout=Specificity result=Human
substance="590 (NCPDGYGYQRHCTVGEDCTDHCCDAYGLCTS; Anti-C5 ultralong CDR-H3 knob domain) [compound 590]" experimental_readout=Specificity result=Human
substance="594 (TCPLGYDLNYRCDHFNTCRVEECCKNGVVNAYGICEYAGGSAT; Anti-C5 ultralong CDR-H3 knob domain) [compound 594]" experimental_readout=Specificity result="Human and Rat"

For this substance ( 596 (TCPRGYHYNDRCEFFNTCRVEECCLNGVVNTYGICEYEGGSAT; Anti-C5 ultralong CDR-H3 knob domain) [compound 596] ), measured Specificity is Human and Rat

Consider 601 (NCPDGYEYNGFCTPDGGCSRVSNWGWDRSCISPT; Anti-C5 ultralong CDR-H3 knob domain) [compound 601] . Its measured Specificity is Human

The value of Specificity measured for the substance 602 (SCPDGYCDCNGCGYGNGCSRGGCFDFRLYSGYSADIVVSTT; Anti-C5 ultralong CDR-H3 knob domain) [compound 602] turned out to be Human

For reference, reported Specificity for 592 (HCTVGEECTDSCCDRYGLCTTSTET; Anti-C5 ultralong CDR-H3 knob domain) [compound 592] stands at Human

Input 579 (HCSPGSDCSWGCYDRDDRRVDGAGADSGLGSTST; Anti-C5 ultralong CDR-H3 knob domain) [compound 579] . Output Specificity: Human
